These entries and their values trace back to PubChem BioAssay AID1159580.

assay: chemical genetic growth profiling, strain panel (AID 1159580);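 also: tested at 20 µM; growth read once vehicle control cultures reached saturation at 30 °C; 1 = growth at the plate median or of vehicle wells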; conditions: S. cerevisiae deletion strains, growth OD, locus YDL040C, strain nat1, hits give low values
The campaign covered roughly 5,500 compounds. About 2,000 (36%) were called active. Roughly 18% stayed inconclusive and do not appear here. This is one part of the list.
Rule for this label: Criterion met means normalized growth is less than 1; Criterion not met means normalized growth is at least 1.

>>> class_assignment("CN(C)CCOc1ccc(/C(=C(/CCCl)c2ccccc2)c2ccccc2)cc1")
"Criterion met"
>>> class_assignment("O=C(O)c1ccccc1Nc1cccc(C(F)(F)F)c1")
"Criterion met"
>>> class_assignment("COc1ccc(C(Cl)=C(c2ccc(OC)cc2)c2ccc(OC)cc2)cc1")
"Criterion not met"

* * *

// reported normalized growth for each item listed
test: chemical genetic growth profiling, strain panel (AID 1159580); details: S. cerevisiae deletion strains, growth OD, locus YNL071W, strain lat1, hits give low values
The campaign covered roughly 5,500 compounds. About 2,000 (36%) were called active. Roughly 18% stayed inconclusive and do not appear here. This is one part of the list.
measurement_label: normalized growth

>>> measurement("COc1cccc(/C=C/C(=O)O)c1C(C)C")
0.982
>>> measurement("CC(=O)NCCCCCC(=O)O")
0.989
>>> measurement("O=C(OC1Cc2c(O)cc(O)cc2OC1c1cc(O)c(O)c(O)c1-c1c(C2Oc3cc(O)cc(O)c3CC2OC(=O)c2cc(O)c(O)c(O)c2)cc(O)c(O)c1O)c1cc(O)c(O)c(O)c1 (configuration not stated)")
1.02
>>> measurement("CC(C)NCC(O)c1ccc2ccccc2c1 (configuration not stated)")
1
>>> measurement("C=CC(C1=CC(=O)C=CC1=O)c1ccccc1 (configuration not stated)")
1.01
>>> measurement("CC(C)(C)NCC(O)c1ccccc1Cl (configuration not stated)")
1
>>> measurement("CC(=O)NCCCS(=O)(=O)O")
1.02
>>> measurement("C=CC(C1=CC(=O)C(OC)=CC1=O)c1ccc(O)cc1 (configuration not stated)")
1.01
>>> measurement("O=C(NC(=O)c1c(F)cccc1F)Nc1ccc(Cl)cc1")
1
>>> measurement("O=C(O)CF")
1.03
>>> measurement("CCN(CC)CCNC(=O)c1cc(S(C)(=O)=O)ccc1OC")
0.975
>>> measurement("CN/C(=C\\[N+](=O)[O-])NCCSCc1ccc(CN(C)C)o1")
0.987

* * *

test: chemical genetic growth profiling, strain panel (AID 1159580); settings: S. cerevisiae deletion strains, growth OD, locus YOL147C, strain pex11, hits give low values
Out of some 5,500 compounds screened, about 2,000 (36%) were called active. Another 18% or so got no clear call; they are omitted. This is one part of the list.
// reported normalized growth for each item listed
measurement_label: normalized growth

>>> measurement("CCN(CC)CCNC(=O)c1cc(S(C)(=O)=O)ccc1OC")
1.01
>>> measurement("Oc1c(Cl)cc(Cl)c2cccnc12")
0.0586
>>> measurement("Nc1ncnc2c1ncn2C1C[C@H](O)[C@@H](CO)O1 (stereo partly drawn)")
0.995
>>> measurement("O=[N+]([O-])c1cc([As](=O)(O)O)ccc1O")
0.987
>>> measurement("CC/C(=C(\\c1ccccc1)c1ccc(OCCN(C)C)cc1)c1ccccc1")
0.0578
>>> measurement("C1CNCCN1")
0.985
>>> measurement("CCCC(C)C1(CC)C(=O)NC(=O)NC1=O (stereo not drawn)")
1
>>> measurement("CC(C)N(C(=O)SCC(Cl)=C(Cl)Cl)C(C)C")
1
>>> measurement("C=C(CC)C(=O)c1ccc(OCC(=O)O)c(Cl)c1Cl")
0.99
>>> measurement("Nc1ncnc2c1ncn2[C@@H]1O[C@H](CO)[C@@H](O)[C@H]1O")
0.987
>>> measurement("CC1(C)C(C(Cl)Cl)C2(Cl)C(Cl)C(Cl)C1(Cl)C2(Cl)Cl (stereo not drawn)")
0.973
>>> measurement("C[C@H]1[C@H]2CCC3C4CC=C5C[C@@H](N(C)C)CC[C@]5(C)C4CC[C@@]32CN1C (stereo partly drawn)")
0.991
>>> measurement("Nc1ncn([C@@H]2O[C@H](CO)[C@@H](O)[C@H]2O)c(=O)n1")
1
>>> measurement("C=C[C@@H](C1=CC(=O)C(OC)=C(OC)C1=O)c1ccccc1")
0.959
>>> measurement("COc1cc(C(=O)NCc2ccc(OCCN(C)C)cc2)cc(OC)c1OC")
0.991
>>> measurement("Nc1ncnc2c1ncn2C1O[C@H](COP(=O)(O)O)[C@@H](O)[C@H]1O (stereo partly drawn)")
0.516
>>> measurement("O=C(CCCCCCCCCCCCC1CCCC1)Nc1ccc(S(=O)(=O)c2ccc(NC(=O)CCCCCCCCCCCCC3CCCC3)cc2)cc1")
0.992
>>> measurement("O=[N+]([O-])c1ccc(O)c([N+](=O)[O-])c1")
0.693
>>> measurement("Oc1ccc(Cl)c2cccnc12")
0.0602
>>> measurement("C=CC(C1=CC(=O)C(OC)=CC1=O)c1ccccc1 (stereo not drawn)")
0.926
>>> measurement("CCC[C@H]1CC2=C(C[C@@H](CC)CC3=C1C(=O)OC3=O)C(=O)OC2=O")
1.01
>>> measurement("O=c1[nH]c(=O)n(C2C[C@@H](O)[C@@H](CO)O2)cc1F (stereo partly drawn)")
1.02
>>> measurement("Nc1nc2c(ncn2C2C[C@H](O)[C@@H](CO)O2)c(=O)[nH]1 (stereo partly drawn)")
0.451

* * *

test: chemical genetic growth profiling, strain panel (AID 1159580);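 also: tested at 20 µM; growth read once vehicle control cultures reached saturation at 30 °C; 1 = growth at the plate median or of vehicle wells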; conditions: S. cerevisiae deletion strains, growth OD, locus YPL153C, strain RAD53
Screen size: about 5,500 compounds; about 2,000 (36%) were called active. Inconclusive results (about 18%) are left out. No stated cut-off is given here; in the data, active means normalized growth mostly below about 0.91 (no sharp cut-off); inconclusive means no clear call, values can overlap the other calls; inactive means mostly above about 0.92. The list shows a part of the results.
Possible outcomes: True = active, False = inactive

>>> class_assignment("O=C(Nc1ccc(N2CCOCC2)cc1)c1ccc(-n2cccn2)cc1")
"False"
>>> class_assignment("Cc1cc(Cl)ccc1NC(=S)NNC(=S)Nc1ccc(F)cc1")
"False"
>>> class_assignment("CC(=O)c1sc(SCCS(=O)(=O)c2ccc(C)cc2)c2c1CC(C)(C)CC2=O")
"True"
>>> class_assignment("NC(=Nc1ccc(F)cc1)SCc1c(Cl)cccc1Cl")
"False"
>>> class_assignment("N#CC(C#N)=C/C=C(/Sc1nc2ccccc2s1)c1ccc(Br)cc1")
"True"
>>> class_assignment("N#CCC(=O)NNC(=S)Nc1ccc(Cl)c(Cl)c1")
"False"
>>> class_assignment("Cc1ccc(S(=O)(=O)CCSC2=CC(=O)CC(C)(C)S2)cc1")
"False"
>>> class_assignment("O=[N+]([O-])c1ccccc1CS(=O)(=O)c1nc2ccccc2s1")
"False"

* * *

assay: chemical genetic growth profiling, strain panel (AID 1159580);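 also: tested at 20 µM; growth read once vehicle control cultures reached saturation at 30 °C; 1 = growth at the plate median or of vehicle wells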; settings: S. cerevisiae deletion strains, growth OD, locus YDR334W, strain swr1, hits give low values
Hit rate of the full screen: of about 5,500 compounds, about 2,000 (36%) were called active. Another 18% or so got no clear call; they are omitted. The list shows a part of the results.
Rule for this label: label 1 means normalized growth is less than 1; label 0 means normalized growth is at least 1.

>>> class_assignment("CC(=O)c1c(O)c(C)c(O)c2c1OC1=CC(=O)C(C(C)=O)C(=O)C12C (stereo not given)")
"label 1"
>>> class_assignment("CO[C@H]1/C=C/O[C@@]2(C)Oc3c(C)c(O)c4c(O)c(c5c(nc6cc(C)ccn65)c4c3C2=O)NC(=O)/C(C)=C\\C=C\\[C@H](C)[C@H](O)[C@@H](C)C(O)[C@@H](C)[C@H](OC(C)=O)[C@@H]1C (stereo not given in full)")
"label 0"
>>> class_assignment("CCCC1O[C@@H]2CC3C4CCC5=CC(=O)C=CC5(C)C4[C@@H](O)CC3(C)[C@]2(C(=O)CO)O1 (stereo not given in full)")
"label 0"
>>> class_assignment("Oc1c(Cl)cc(Cl)c2cccnc12")
"label 1"
>>> class_assignment("Cc1c(O)c(O)cc2c1CC=C1[C@@]2(C)CC[C@@]2(C)C3C[C@](C)(C(=O)O)CC[C@]3(C)CC[C@]12C (stereo not given in full)")
"label 1"
>>> class_assignment("Oc1c(Br)cc(Br)c2cccnc12")
"label 1"
>>> class_assignment("Oc1ccc(Cl)c2cccnc12")
"label 1"
>>> class_assignment("O=C(O)/C=C/C=C/c1ccccc1")
"label 1"

* * *

// reported normalized growth for each item listed
assay: chemical genetic growth profiling, strain panel (AID 1159580);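 also: tested at 20 µM; growth read once vehicle control cultures reached saturation at 30 °C; 1 = growth at the plate median or of vehicle wells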; conditions: S. cerevisiae deletion strains, growth OD, locus YFR019W, strain FAB1, hits give low values
The campaign covered roughly 5,500 compounds. About 2,000 (36%) were called active. Another 18% or so got no clear call; they are omitted. The list shows a part of the results.
measurement_label: normalized growth

>>> measurement("O=C(Nc1ccc(N2CCOCC2)cc1)c1ccc(-n2cccn2)cc1")
0.955
>>> measurement("CCCc1c(C(=O)NC2Cc3ccccc3C2)cnn1-c1ccccc1")
0.974
>>> measurement("CCCc1c(C(=O)NNc2cccc(Cl)c2)cnn1-c1ccccc1")
0.937
>>> measurement("O=C(NCc1ccncc1)c1ccc(-n2cccn2)cc1")
0.962
>>> measurement("OC(CNCc1ccc(Cl)cc1)CO/N=C\\C1=C(Cl)c2cc(Cl)ccc2OC1 (stereo unspecified)")
0.921
>>> measurement("CCCc1c(C(=O)Sc2ccccn2)cnn1-c1ccc(Cl)cc1")
0.908
